Data provenance is patent US9493444B2.

System: Wnt pathway (TCF-dependent transcription in HEK293 luciferase reporter cell line with ER-DSH construct)
Experiment: Cellular assay for Wnt pathway activity (luciferase reporter)
Type: cell-based
Conditions: Homo sapiens; Wnt pathway inhibition, HEK293 luciferase reporter cells (ER-DSH, TCF promoter), 24 hours incubation, estrogen-induced
Procedure: 1. Cellular Assay for Wnt Pathway Activity Compounds were tested for their Wnt pathway inhibitory activities using a luciferase reporter cell based assay. […] Compounds, in concentrations from 30 μM down to 1 nM, were incubated for 24 hours on the cells, which were induced for TCF-dependent transcription by the addition of estrogen (10). Luciferase activities were determined using the ONE GLO Luciferase Assay System (Promega) and the ENVISION microplate reader (Perkin Elmer). […]
measuredProperty: IC50

compound: CC(=O)N(C)CCN(C)c1cncc(Oc2ccc(-c3cnc4sc(=O)[nH]c4c3)cc2)n1 [Compound 186]
measuredProperty: IC50
result: < 0.2 µM

compound: NC(=O)CCNc1cncc(Oc2ccc(-c3cnc(N)cn3)cc2)n1 [Compound 301]
measuredProperty: IC50
result: 1 to 10 µM

compound: CC(=O)N(C)CCN(C)c1cncc(Oc2ccc(N3CCN(c4ccncc4)CC3)cc2)n1 [Compound 132]
measuredProperty: IC50
result: < 0.2 µM

compound: CC(=O)N(C)CCN(C)c1cncc(Oc2ccc(-c3cncc4[nH]ccc34)cc2)n1 [Compound 237]
measuredProperty: IC50
result: 0.2 to 1 µM

compound: CNCCN(C)c1cncc(Oc2ccc(-c3cccc(N4CCN(C)CC4)n3)cc2)n1 [Compound 134]
measuredProperty: IC50
result: 1 to 10 µM

compound: CC(=O)N(C)CCN(C)c1cncc(Oc2ccc(N3CCN(C(C)=O)CC3)cc2)n1 [Compound 87]
measuredProperty: IC50
result: 0.2 to 1 µM

compound: COc1cc(C(C)=O)ccc1Oc1cncc(N(C)CCN(C)C(C)=O)n1 [Compound 243]
measuredProperty: IC50
result: 1 to 10 µM

compound: CC(=O)N(C)CCN(C)c1cncc(Oc2ccc3ncccc3c2)n1 [Compound 47]
measuredProperty: IC50
result: 1 to 10 µM

compound: CC(=O)N(C)CCN(C)c1cncc(Oc2ccc3c(c2)C(=O)CC3)n1 [Compound 108]
measuredProperty: IC50
result: 1 to 10 µM

compound: CN(CCCN(C)c1cncc(Oc2ccc(F)cc2)n1)C(=O)C(F)(F)F [Compound 84]
measuredProperty: IC50
result: 1 to 10 µM

compound: CC(=O)N(C)CCN(C)c1cncc(Oc2ccc(-c3ccccc3S(C)(=O)=O)cc2)n1 [Compound 150]
measuredProperty: IC50
result: < 0.2 µM

compound: CC(=O)N(C)CCN(C)c1cncc(Oc2ccc(-c3ccc(N4CCNCC4)nc3)cc2)n1 [Compound 245]
measuredProperty: IC50
result: < 0.2 µM

compound: CC(=O)N(C)CCN(C)c1cncc(Oc2ccc(Cl)cc2Cl)n1 [Compound 96]
measuredProperty: IC50
result: 0.2 to 1 µM

compound: CC(=O)N(C)CCN(C)c1cncc(Oc2ccc(-c3ccnc(N)n3)cc2)n1 [Compound 202]
measuredProperty: IC50
result: < 0.2 µM

compound: CNC(=O)CCN(C)c1cncc(Oc2ccc(-c3ccc(C)cn3)cc2)n1 [Compound 247]
measuredProperty: IC50
result: < 0.2 µM

compound: CC(=O)N(C)CCNc1cncc(Oc2ccc(-c3ccc(S(N)(=O)=O)cn3)cc2)n1 [Compound 294]
measuredProperty: IC50
result: 1 to 10 µM
